Recorded cytotoxicity at 70.5 h values for a group of compounds are listed next.
assay: Human HepG2 cell viability assay in 384 well format; assay type: toxicity, cell-based; parameters: dose 125 nL, time 70.5 hour; concentration not given beside the values; settings: HepG2 cells, read-out: Inhibition
Give a bare numeral; the unit % is implied.

Sample records with cytotoxicity at 70.5 h:
COMPOUND	cytotoxicity at 70.5 h, %
COc1ccc2cnn(CC(=O)NCC3CCCO3)c(=O)c2c1OC (stereo not drawn)	-3.4
O=C(NC[C@H]1OC[C@@H](NC2CCOCC2)[C@@H]1O)Nc1ccccc1	14.3
CCc1ccc(CN2Cc3nccn3CC(CN3CCOCC3)C2)o1 (stereo not drawn)	-5.92
Cc1ccc(N2CCCc3sc(C(=O)NCc4ccncc4)nc32)nn1	-1.89

Exercise: Name the recorded cytotoxicity at 70.5 h for `O=C(C[C@@H]1COC[C@H]2CN(C(=O)c3cccnc3)C[C@@H]12)N1CCOCC1` .
Key: -4.26

Exercise: Follow-up entry: `COc1cccc(O[C@H]2CCN(c3nc(C)cc(C)n3)CC[C@@H]2O)c1`
Key: 20.4

Exercise: Follow-up entry: `CC(=O)N1CCC(NC(=O)CN2CCCc3c(C)ccc(F)c32)CC1`
Key: -9.21
